# TEST_METHOD_NOTES: Bioavailability of vaginally administered oxytocin, study OXYPEP002
# Type: in vivo
# EXPERIMENTAL_CONTEXT: female, human, blood, 400 IU, 400 IU vaginal; residual area alternative i; read-out: Bioavailability

{"SMILES_STRUCTURE": "CC[C@H](C)[C@@H]1NC(=O)[C@H](Cc2ccc(O)cc2)NC(=O)[C@@H](N)CSSC[C@@H](C(=O)N2CCC[C@H]2C(=O)N[C@@H](CC(C)C)C(=O)NCC(N)=O)NC(=O)[C@H](CC(N)=O)NC(=O)[C@H](CCC(N)=O)NC1=O", "READING_UNIT": "%", "bioavailability": 16}

###

# TEST_METHOD_NOTES: Bioavailability of vaginally administered oxytocin, study OXYPEP002
# Type: in vivo
# EXPERIMENTAL_CONTEXT: female, human, blood; 400 IU vaginal, post-dose; read-out: Average blood oxytocin level, 120 min Visit 2

{"COMPOUND": "CC[C@H](C)[C@@H]1NC(=O)[C@H](Cc2ccc(O)cc2)NC(=O)[C@@H](N)CSSC[C@@H](C(=O)N2CCC[C@H]2C(=O)N[C@@H](CC(C)C)C(=O)NCC(N)=O)NC(=O)[C@H](CC(N)=O)NC(=O)[C@H](CCC(N)=O)NC1=O [oxytocin, Cys-Tyr-Ile-Gln-Asn-Cys-Pro-Leu-Gly-NH2]", "level at 2 h": "0.378 ng/mL"}

###

# TEST_METHOD_NOTES: Bioavailability of vaginally administered oxytocin, study OXYPEP002
# Type: in vivo
# EXPERIMENTAL_CONTEXT: female, human, blood; 400 IU vaginal, post-dose; read-out: Average blood oxytocin level, 30 min Visit 2

{"SMILES_STRUCTURE": "CC[C@H](C)[C@@H]1NC(=O)[C@H](Cc2ccc(O)cc2)NC(=O)[C@@H](N)CSSC[C@@H](C(=O)N2CCC[C@H]2C(=O)N[C@@H](CC(C)C)C(=O)NCC(N)=O)NC(=O)[C@H](CC(N)=O)NC(=O)[C@H](CCC(N)=O)NC1=O", "level at 0.5 h / ng/mL": 0.816}

###

# TEST_METHOD_NOTES: Bioavailability of vaginally administered oxytocin, study OXYPEP002
# Assay type: in vivo
# EXPERIMENTAL_CONTEXT: female, human, blood, 100 IU, 100 IU vaginal; read-out: AUC60-120 min
# Method: The objective of the present analysis was to estimate the bioavailability of oxytocin following vaginal administration of 100 (170 μg) or 400 IU (680 μg) oxytocin vaginal gel using data from study OXYPEP002 (Clinical trial protocol OXYPEP002). […] The systemic oxytocin exposure following vaginally administered oxytocin was assessed by calculating the area under the blood concentration versus time curve (AUC) according to the trapezoidal rule. […] The bioavailability was calculated according to equation 1. […]

{"SMILES_STRUCTURE": "CC[C@H](C)[C@@H]1NC(=O)[C@H](Cc2ccc(O)cc2)NC(=O)[C@@H](N)CSSC[C@@H](C(=O)N2CCC[C@H]2C(=O)N[C@@H](CC(C)C)C(=O)NCC(N)=O)NC(=O)[C@H](CC(N)=O)NC(=O)[C@H](CCC(N)=O)NC1=O", "AUC": "0.11 ng·h/mL"}

###

# TEST_METHOD_NOTES: Bioavailability of vaginally administered oxytocin, study OXYPEP002
# Format: in vivo
# EXPERIMENTAL_CONTEXT: female, human, blood, 400 IU, 400 IU vaginal; residual area alternative ii; read-out: Bioavailability

{"COMPOUND": "CC[C@H](C)[C@@H]1NC(=O)[C@H](Cc2ccc(O)cc2)NC(=O)[C@@H](N)CSSC[C@@H](C(=O)N2CCC[C@H]2C(=O)N[C@@H](CC(C)C)C(=O)NCC(N)=O)NC(=O)[C@H](CC(N)=O)NC(=O)[C@H](CCC(N)=O)NC1=O [oxytocin, Cys-Tyr-Ile-Gln-Asn-Cys-Pro-Leu-Gly-NH2]", "bioavailability, %": 11}

###

# TEST_METHOD_NOTES: Bioavailability of vaginally administered oxytocin, study OXYPEP002
# Assay type: in vivo
# EXPERIMENTAL_CONTEXT: female, human, blood, 100 IU, 100 IU vaginal; residual area alternative ii; read-out: Bioavailability

{"MOLECULE": "CC[C@H](C)[C@@H]1NC(=O)[C@H](Cc2ccc(O)cc2)NC(=O)[C@@H](N)CSSC[C@@H](C(=O)N2CCC[C@H]2C(=O)N[C@@H](CC(C)C)C(=O)NCC(N)=O)NC(=O)[C@H](CC(N)=O)NC(=O)[C@H](CCC(N)=O)NC1=O [oxytocin, Cys-Tyr-Ile-Gln-Asn-Cys-Pro-Leu-Gly-NH2]", "bioavailability": "6.4%"}

###

# TEST_METHOD_NOTES: Bioavailability of vaginally administered oxytocin, study OXYPEP002
# Type: in vivo
# EXPERIMENTAL_CONTEXT: female, human, blood, 100 IU, 100 IU vaginal; read-out: AUC30-60 min

{"SMILES_STRUCTURE": "CC[C@H](C)[C@@H]1NC(=O)[C@H](Cc2ccc(O)cc2)NC(=O)[C@@H](N)CSSC[C@@H](C(=O)N2CCC[C@H]2C(=O)N[C@@H](CC(C)C)C(=O)NCC(N)=O)NC(=O)[C@H](CC(N)=O)NC(=O)[C@H](CCC(N)=O)NC1=O", "AUC": "0.0633 ng·h/mL"}

###

# TEST_METHOD_NOTES: Bioavailability of vaginally administered oxytocin, study OXYPEP002
# Type: in vivo
# EXPERIMENTAL_CONTEXT: female, human, blood, 400 IU, 400 IU vaginal; residual area alternative i; read-out: AUCvaginal

{"COMPOUND": "CC[C@H](C)[C@@H]1NC(=O)[C@H](Cc2ccc(O)cc2)NC(=O)[C@@H](N)CSSC[C@@H](C(=O)N2CCC[C@H]2C(=O)N[C@@H](CC(C)C)C(=O)NCC(N)=O)NC(=O)[C@H](CC(N)=O)NC(=O)[C@H](CCC(N)=O)NC1=O [oxytocin, Cys-Tyr-Ile-Gln-Asn-Cys-Pro-Leu-Gly-NH2]", "READING_UNIT": "ng·h/mL", "AUC": 1.53}

###

# TEST_METHOD_NOTES: Bioavailability of vaginally administered oxytocin, study OXYPEP002
# Assay type: in vivo
# EXPERIMENTAL_CONTEXT: female, human, blood, 100 IU, 100 IU vaginal; residual area alternative i; read-out: Bioavailability
ASSAY_METRIC: bioavailability (%)

{"COMPOUND": "CC[C@H](C)[C@@H]1NC(=O)[C@H](Cc2ccc(O)cc2)NC(=O)[C@@H](N)CSSC[C@@H](C(=O)N2CCC[C@H]2C(=O)N[C@@H](CC(C)C)C(=O)NCC(N)=O)NC(=O)[C@H](CC(N)=O)NC(=O)[C@H](CCC(N)=O)NC1=O [oxytocin, Cys-Tyr-Ile-Gln-Asn-Cys-Pro-Leu-Gly-NH2]", "ASSAY_VALUE": 12}

###

# TEST_METHOD_NOTES: Bioavailability of vaginally administered oxytocin, study OXYPEP002
# Type: in vivo
# EXPERIMENTAL_CONTEXT: female, human, blood, 100 IU, 100 IU vaginal; residual area alternative i; read-out: AUCvaginal

{"MOLECULE": "CC[C@H](C)[C@@H]1NC(=O)[C@H](Cc2ccc(O)cc2)NC(=O)[C@@H](N)CSSC[C@@H](C(=O)N2CCC[C@H]2C(=O)N[C@@H](CC(C)C)C(=O)NCC(N)=O)NC(=O)[C@H](CC(N)=O)NC(=O)[C@H](CCC(N)=O)NC1=O [oxytocin, Cys-Tyr-Ile-Gln-Asn-Cys-Pro-Leu-Gly-NH2]", "AUC / ng·h/mL": 0.299}

###

# TEST_METHOD_NOTES: Bioavailability of vaginally administered oxytocin, study OXYPEP002
# Assay type: in vivo
# EXPERIMENTAL_CONTEXT: female, human, blood, 400 IU, 400 IU vaginal; residual area alternative i; read-out: AUCresidual

{"COMPOUND": "CC[C@H](C)[C@@H]1NC(=O)[C@H](Cc2ccc(O)cc2)NC(=O)[C@@H](N)CSSC[C@@H](C(=O)N2CCC[C@H]2C(=O)N[C@@H](CC(C)C)C(=O)NCC(N)=O)NC(=O)[C@H](CC(N)=O)NC(=O)[C@H](CCC(N)=O)NC1=O [oxytocin, Cys-Tyr-Ile-Gln-Asn-Cys-Pro-Leu-Gly-NH2]", "AUC [ng·h/mL]": 0.783}

###

# TEST_METHOD_NOTES: Bioavailability of vaginally administered oxytocin, study OXYPEP002
# Type: in vivo
# EXPERIMENTAL_CONTEXT: female, human, blood, 100 IU, 100 IU vaginal; residual area alternative ii; read-out: AUCvaginal

{"SMILES_STRUCTURE": "CC[C@H](C)[C@@H]1NC(=O)[C@H](Cc2ccc(O)cc2)NC(=O)[C@@H](N)CSSC[C@@H](C(=O)N2CCC[C@H]2C(=O)N[C@@H](CC(C)C)C(=O)NCC(N)=O)NC(=O)[C@H](CC(N)=O)NC(=O)[C@H](CCC(N)=O)NC1=O", "READING_UNIT": "ng·h/mL", "AUC": 0.156}
